- test.target: Transcription factor AP1 (Homo sapiens, UniProt P01100+P05412)
- Sequence (P05412 whole entry): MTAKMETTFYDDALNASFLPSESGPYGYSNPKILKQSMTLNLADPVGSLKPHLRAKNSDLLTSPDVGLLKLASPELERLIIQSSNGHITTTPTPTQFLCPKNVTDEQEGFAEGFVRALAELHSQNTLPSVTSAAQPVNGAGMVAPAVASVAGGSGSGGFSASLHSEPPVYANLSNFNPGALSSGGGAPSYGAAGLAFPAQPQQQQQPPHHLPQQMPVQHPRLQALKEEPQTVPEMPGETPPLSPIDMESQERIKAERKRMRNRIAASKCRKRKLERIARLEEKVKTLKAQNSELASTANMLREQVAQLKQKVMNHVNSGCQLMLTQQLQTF
- Sequence (P01100 whole entry): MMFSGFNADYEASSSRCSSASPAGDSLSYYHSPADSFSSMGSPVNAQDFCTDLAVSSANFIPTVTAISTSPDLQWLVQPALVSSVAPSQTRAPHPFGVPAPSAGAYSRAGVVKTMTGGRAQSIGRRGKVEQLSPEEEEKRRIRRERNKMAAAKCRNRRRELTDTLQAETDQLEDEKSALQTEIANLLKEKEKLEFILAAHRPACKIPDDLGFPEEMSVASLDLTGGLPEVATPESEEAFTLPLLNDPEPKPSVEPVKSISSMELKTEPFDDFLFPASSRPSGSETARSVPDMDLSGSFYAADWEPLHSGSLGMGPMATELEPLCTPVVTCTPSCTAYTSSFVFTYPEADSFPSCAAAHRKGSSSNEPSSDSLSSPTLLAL
- protocol.summary: Inhibitory activity against transcription activator protein-1 (AP-1)
pIC50: −log10 of the molar value. Residues, ends and D or L forms follow the SMILES beside them.
Below, each of the molecules is paired with its reported pIC50 value.
outcome.measure: pIC50

[[record]]
molecule = "CC(C)C[C@H](NC(=O)[C@H](CC(=O)O)NC(=O)[C@H](CC(C)C)NC(=O)[C@H](CCC(N)=O)NC(=O)[C@H](C)N)C(=O)N[C@@H](C)C(=O)N[C@@H](CC(=O)O)C(=O)NCC(=O)O (H-AQLDLADG-OH)"
outcome_measure = "pIC50"
test_result = "< 4.00"

[[record]]
molecule = "CC(C)C[C@H](NC(=O)[C@H](CC(=O)O)NC(=O)[C@H](CC(C)C)NC(=O)[C@H](CCCCN)NC(=O)CN)C(=O)N[C@@H](C)C(=O)N[C@@H](CC(=O)O)C(=O)NCC(=O)O (H-GKLDLADG-OH)"
outcome_measure = "pIC50"
test_result = "< 3.70"

[[record]]
molecule = "CC(C)C[C@H](NC(=O)[C@H](CC(=O)O)NC(=O)[C@H](CC(C)C)NC(=O)[C@H](CCC(N)=O)NC(=O)CN)C(=O)NCC(=O)N[C@@H](CC(=O)O)C(=O)NCC(=O)O (H-GQLDLGDG-OH)"
outcome_measure = "pIC50"
test_result = "< 3.70"


----------
- test.target: Transcription factor AP1 (Homo sapiens) (UniProt P05412+P01100)
- protocol.summary: Percent inhibition of transcription activator protein-1 (AP-1) in DNA binding assay at 100 uM
- Assay type: protein-complex assay
Residues, ends and D or L forms follow the SMILES beside them.
outcome.measure: inhibition (%)

[[record]]
molecule = "CC(C)C[C@H](NC(=O)[C@H](CC(=O)O)NC(=O)[C@H](CC(C)C)NC(=O)[C@H](CCCCN)NC(=O)CN)C(=O)N[C@@H](C)C(=O)N[C@@H](CC(=O)O)C(=O)NCC(=O)O (H-GKLDLADG-OH)"
outcome_measure = "inhibition"
test_result = -2

[[record]]
molecule = "CC(C)C[C@H](NC(=O)[C@H](CC(=O)O)NC(=O)[C@H](CC(C)C)NC(=O)[C@H](CC(N)=O)NC(=O)CN)C(=O)N[C@@H](C)C(=O)N[C@@H](CC(=O)O)C(=O)NCC(=O)O (H-GNLDLADG-OH)"
outcome_measure = "inhibition"
test_result = 42

[[record]]
molecule = "CC(C)C[C@H](NC(=O)[C@H](CCC(N)=O)NC(=O)CN)C(=O)N[C@@H](CC(=O)O)C(=O)N[C@@H](CC1CCCCC1)C(=O)N[C@@H](C)C(=O)N[C@@H](CC(=O)O)C(=O)NCC(=O)O (HELM PEPTIDE1{G.Q.L.D.[Cha].A.D.G}$$$$V2.0)"
outcome_measure = "inhibition"
test_result = 10

[[record]]
molecule = "CC(C)C[C@H](NC(=O)[C@H](CC(=O)O)NC(=O)[C@H](CC(C)C)NC(=O)[C@H](CCC(N)=O)NC(=O)CN)C(=O)N[C@@H](C)C(=O)N[C@@H](CC(=O)O)C(=O)N[C@@H](C)C(=O)O (H-GQLDLADA-OH)"
outcome_measure = "inhibition"
test_result = 15


----------
# maps each entry to its IC50
- test.target: Transcription factor AP1 (Homo sapiens, UniProt P01100+P05412)
- protocol.summary: Inhibitory activity against transcription activator protein-1 (AP-1)
- Format: protein-complex assay
Residues, ends and D or L forms follow the SMILES beside them.
outcome.measure: IC50

[[record]]
compound = "CC(C)C[C@H](NC(=O)[C@H](CCC(N)=O)NC(=O)CN)C(=O)N[C@@H](CC(=O)O)C(=O)N[C@@H](CC1CCCCC1)C(=O)N[C@@H](C)C(=O)N[C@@H](CC(=O)O)C(=O)NCC(=O)O (HELM PEPTIDE1{G.Q.L.D.[Cha].A.D.G}$$$$V2.0)"
outcome_measure = "IC50"
test_result = "> 100 µM"

[[record]]
compound = "CC(C)C[C@H](NC(=O)[C@H](CC(=O)O)NC(=O)[C@H](CC(C)C)NC(=O)[C@H](CCC(=O)O)NC(=O)CN)C(=O)N[C@@H](C)C(=O)N[C@@H](CC(=O)O)C(=O)NCC(=O)O (H-GELDLADG-OH)"
outcome_measure = "IC50"
test_result = "> 200 µM"

[[record]]
compound = "CC(C)C[C@H](NC(=O)[C@H](CC(=O)O)NC(=O)[C@H](CC(C)C)NC(=O)[C@H](CC(N)=O)NC(=O)CN)C(=O)N[C@@H](C)C(=O)N[C@@H](CC(=O)O)C(=O)NCC(=O)O (H-GNLDLADG-OH)"
outcome_measure = "IC50"
test_result = "> 100 µM"

[[record]]
compound = "CC(C)C[C@H](NC(=O)[C@H](CC(=O)O)NC(=O)[C@H](CC(C)C)NC(=O)[C@H](CCC(N)=O)NC(=O)CN)C(=O)N[C@@H](C)C(=O)N[C@@H](CC(=O)O)C(=O)N[C@@H](C)C(=O)O (H-GQLDLADA-OH)"
outcome_measure = "IC50"
test_result = "> 100 µM"

[[record]]
compound = "CC(C)C[C@H](NC(=O)[C@H](CC(=O)O)NC(=O)[C@H](CC(C)C)NC(=O)[C@H](CCC(N)=O)NC(=O)CN)C(=O)N[C@@H](C)C(=O)N[C@@H](C)C(=O)NCC(=O)O (H-GQLDLAAG-OH)"
outcome_measure = "IC50"
test_result = "> 100 µM"


----------
- test.target: Transcription factor AP1 (Homo sapiens) (UniProt P05412+P01100)
- protocol.summary: Percent inhibition of transcription activator protein-1 (AP-1) in DNA binding assay at 100 uM
- Type: protein-complex assay
Residues, ends and D or L forms follow the SMILES beside them.
Measured inhibition values are reported for all entries that follow.
outcome.measure: inhibition (%)

[[record]]
compound = "CC(C)C[C@H](NC(=O)[C@H](C)NC(=O)CN)C(=O)N[C@@H](CC(=O)O)C(=O)N[C@@H](CC(C)C)C(=O)N[C@@H](C)C(=O)N[C@@H](CC(=O)O)C(=O)NCC(=O)O (H-GALDLADG-OH)"
test_result = 29

[[record]]
compound = "CC(C)C[C@H](NC(=O)[C@H](CC(=O)O)NC(=O)[C@H](CC(C)C)NC(=O)[C@H](CCC(N)=O)NC(=O)CN)C(=O)N[C@@H](C)C(=O)N[C@@H](CC(=O)O)C(=O)O (H-GQLDLAD-OH)"
test_result = 11

[[record]]
compound = "CC(C)C[C@H](NC(=O)[C@H](CC(=O)O)NC(=O)[C@H](CC(C)C)NC(=O)[C@H](CCC(N)=O)NC(=O)CN)C(=O)NCC(=O)N[C@@H](CC(=O)O)C(=O)NCC(=O)O (H-GQLDLGDG-OH)"
test_result = 1

[[record]]
compound = "CC(C)C[C@H](NC(=O)[C@H](CC(=O)O)NC(=O)[C@H](CC(C)C)NC(=O)[C@H](CCC(N)=O)NC(=O)CN)C(=O)N[C@@H](C)C(=O)N[C@@H](CC(=O)O)C(=O)NCC(=O)O (H-GQLDLADG-OH)"
test_result = 81

[[record]]
compound = "CC(C)C[C@H](NC(=O)[C@H](CC(=O)O)NC(=O)[C@H](CC(C)C)NC(=O)[C@@H](N)CCC(N)=O)C(=O)N[C@@H](C)C(=O)N[C@@H](CC(=O)O)C(=O)NCC(=O)O (H-QLDLADG-OH)"
test_result = -2

[[record]]
compound = "CC(C)C[C@H](NC(=O)[C@H](CC(=O)O)NC(=O)[C@H](CC(C)C)NC(=O)[C@H](CCC(=O)O)NC(=O)CN)C(=O)N[C@@H](C)C(=O)N[C@@H](CC(=O)O)C(=O)NCC(=O)O (H-GELDLADG-OH)"
test_result = -2

[[record]]
compound = "CC(C)C[C@H](NC(=O)[C@H](CC(=O)O)NC(=O)[C@H](CC(C)C)NC(=O)[C@H](CCC(N)=O)NC(=O)CN)C(=O)N[C@@H](C)C(=O)N[C@@H](C)C(=O)NCC(=O)O (H-GQLDLAAG-OH)"
test_result = 14

